target or test system: CRTH2 receptor (hCRTH2) (Homo sapiens)
Construct: expressed in transfected cells; host or cells: HEK cells (HEK-hCRTH2 cell line), membranes
Sequence (Q9Y5Y4 1-395): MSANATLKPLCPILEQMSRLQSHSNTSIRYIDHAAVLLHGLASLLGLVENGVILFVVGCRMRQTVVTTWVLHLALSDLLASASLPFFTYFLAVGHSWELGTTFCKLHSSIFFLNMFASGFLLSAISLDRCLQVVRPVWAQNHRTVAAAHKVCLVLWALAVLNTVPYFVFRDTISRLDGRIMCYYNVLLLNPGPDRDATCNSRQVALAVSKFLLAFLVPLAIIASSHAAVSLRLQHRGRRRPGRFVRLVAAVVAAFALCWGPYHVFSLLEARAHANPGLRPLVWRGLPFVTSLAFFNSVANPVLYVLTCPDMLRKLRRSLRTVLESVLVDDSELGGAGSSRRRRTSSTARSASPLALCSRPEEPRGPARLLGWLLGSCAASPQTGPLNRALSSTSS
assay name: Radioligand binding assay ([3H]PGD2 competition, membranes of HEK-hCRTH2 cell line)
test settings: 3.0 nM [3H]PGD2, HEK-hCRTH2 membranes, 60 min, room temperature; read-out: Ki
pKi: −log10 of the molar value.
Attribute: pKi
measure: pKi

                                    compound  measure         value
 0  O=C(O)CCCCc1nc2cc(C3=NOC4(CCCCC4)C3)ccc2c(=O)n1-c1ccc(F)cc1 [Example 15X]      pKi        ≥ 8.00
 1  O=C(O)CCCCc1nc2cc(C3=NO[C@@H](c4nc5ccc(Cl)cc5s4)C3)ccc2c(=O)n1-c1ccc(F)cc1      pKi        ≥ 8.00
 2  CC1(c2nc3ccccc3[nH]2)CC(c2ccc3c(=O)n(-c4ccc(F)cc4)c(CCCCC(=O)O)nc3c2)=NO1 (stereo not drawn)      pKi        ≥ 8.00
 3  O=C(O)CCCCc1nc2cc(-c3cc(COCc4cccc(F)c4)on3)ccc2c(=O)n1-c1ccc(F)cc1      pKi        ≥ 8.00
 4  CC1(c2nc3ccc(Cl)cc3o2)CC(c2ccc3c(=O)n(-c4ccc(F)cc4)c(CCCCC(=O)O)nc3c2)=NO1 (stereo not drawn)      pKi        ≥ 8.00
 5  C[C@]1([C@H](O)c2ccccc2)CC(c2ccc3c(=O)n(-c4ccccc4)c(CCCCC(=O)O)nc3c2)=NO1 [Example 26K]      pKi  7.30 to 8.00
 6  C[C@@H](OCc1ccccc1)c1cc(-c2ccc3c(=O)n(-c4ccc(F)cc4)c(CCCCC(=O)O)nc3c2)no1      pKi  7.30 to 8.00
 7  Cn1cc(-c2ccc3c(=O)n(-c4ccc(F)cc4)c(CCCCC(=O)O)nc3c2)nn1      pKi        ≥ 8.00
 8  C[C@@]1(c2nc3ccc(Cl)cc3[nH]2)CC(c2ccc3c(=O)n(-c4ccc(Cl)cc4)c(CCCCC(=O)O)nc3c2)=NO1      pKi        ≥ 8.00
 9  O=C(O)CCCCc1nc2cc(C3=NOC(c4ccccc4)C3)ccc2c(=O)n1-c1ccc(F)cc1 (stereo not drawn)      pKi  7.30 to 8.00
10  C[C@](O)(c1ccc(F)cc1)c1cc(-c2ccc3c(=O)n(-c4ccc(F)cc4)c(CCCCC(=O)O)nc3c2)no1      pKi  7.30 to 8.00
11  CO[C@H](c1ccccc1)c1cc(-c2ccc3c(=O)n(-c4ccc(F)cc4)c(CCCCC(=O)O)nc3c2)no1      pKi        ≥ 8.00
12  CC1(c2nc3cc(F)c(F)cc3[nH]2)CC(c2ccc3c(=O)n(-c4ccc(Cl)cc4)c(CCCCC(=O)O)nc3c2)=NO1 (stereo not drawn)      pKi        ≥ 8.00
13  O=C(O)CCCCc1nc2cc(-c3cn(Cc4ccc(F)cc4)nn3)ccc2c(=O)n1-c1ccc(F)cc1      pKi        ≥ 8.00
14  O=C(O)CCCCc1nc2cc(-c3cc(CNS(=O)(=O)c4ccc(OC(F)(F)F)cc4)on3)ccc2c(=O)n1-c1ccc(F)cc1 [Example 24i]      pKi        ≥ 8.00
